- test: Example 20 crossover pharmacokinetics of two oral tablet formulations in dogs under fed conditions
- Assay type: in vivo, beagle dogs
- runConditions: male, beagle, dog, plasma, po, 200 mg, Example 20, fed dogs (high fat diet), 200 mg tablet PO, mean; read-out: Cmax
parameter: Cmax (ng/mL)

> print(dat)
                                   compound  measuredvalue
1  Cc1ccc(S(=O)(=O)O)cc1.Cn1cc(-c2cn(-c3ccc(OC(F)(F)F)cc3)c(=O)c3ncn(C)c23)cn1 [mono-tosylate]           5430

----------
- test: Example 19 crossover pharmacokinetics of four oral tablet formulations in fasted dogs
- Format: in vivo, beagle dogs
- runConditions: male, beagle, dog, plasma, po, 200 mg/tablet/dog, Example 19, fasted dogs, 200 mg tablet PO, mean; LOQ 1.02 to 5.1 ng/mL; read-out: Plasma concentration of Compound I at 4 hours
- Experimental: Pharmacokinetics parameters of formulations of Compound I and its salts in dogs were determined by orally administering a test formulation tablet at 200 mg of active (Compound I or salt) per dog. Blood samples were taken at various times after administration, plasma prepared, and submitted to analysis for parent drug using a qualified LC-MS-MS assay. Pharmacokinetics parameters derived from the plasma analytical data were determined using non-compartmental analysis. […]
parameter: concentration at 4 h (ng/mL)

> print(dat)
                                   compound  unitsymbol  measuredvalue
1  Cc1ccc(S(=O)(=O)O)cc1.Cn1cc(-c2cn(-c3ccc(OC(F)(F)F)cc3)c(=O)c3ncn(C)c23)cn1 [mono-tosylate]       ng/mL           6780
